All values here come from patent US12128028B2.

Biological target: UniProtKB P22001
Assay: Kv1.3 potency evaluation, automated patch clamp electrophysiology (QPatch HT) in CHO-Kv1.3 cells
Assay type: cell-based
Conditions: whole-cell QPatch HT, % inhibition of charge, step to +30 mV, four concentrations, N≥3 cells, read-out: hKv1.3 IC50
propertyMeasured: IC50 (nM)

Solved cases below.
CC(C)(C)CNC(=O)[C@@H]1NC(C23CC(N(Cc4ccc(Cl)c(F)c4)S(=O)(=O)c4ccccc4)(C2)C3)=NC1(C)C (mixture of isomers); 49
CC1(C)N=C(C23CC(N(Cc4ccc(Cl)c(F)c4)S(=O)(=O)c4ccccc4)(C2)C3)N[C@H]1C(=O)NCC1CC1 (mixture of isomers); 50

I. C[C@H]1CC(F)(F)CN1C(=O)[C@@H]1NC(C23CC(N(Cc4ccc(Cl)c(F)c4)S(=O)(=O)c4ccccc4)(C2)C3)=NC1(C)C (mixture of isomers)
II. CN(C(=O)[C@@H]1NC(C23CC(N(Cc4ccc(Cl)c(Cl)c4)S(=O)(=O)c4ccccc4)(C2)C3)=NC1(C)C)C1CC(C(F)F)C1 (mixture of isomers) [Example 153]
III. O=C(NCCC(F)(F)F)[C@@H]1NC(C23CC(N(Cc4ccc(C(F)(F)F)cc4)S(=O)(=O)c4ccc(F)cc4)(C2)C3)=NC12CC2
Qu. Exam item: list the entries in increasing order of IC50. Kindly provide the labels arranged according to the requested ordering.
Ans. I, II, III
(I: 46 nM, II: 91 nM, III: 178 nM)

* * *

Biological target: human Kv1.3 (Homo sapiens (Human))
Sequence (P22001 whole entry): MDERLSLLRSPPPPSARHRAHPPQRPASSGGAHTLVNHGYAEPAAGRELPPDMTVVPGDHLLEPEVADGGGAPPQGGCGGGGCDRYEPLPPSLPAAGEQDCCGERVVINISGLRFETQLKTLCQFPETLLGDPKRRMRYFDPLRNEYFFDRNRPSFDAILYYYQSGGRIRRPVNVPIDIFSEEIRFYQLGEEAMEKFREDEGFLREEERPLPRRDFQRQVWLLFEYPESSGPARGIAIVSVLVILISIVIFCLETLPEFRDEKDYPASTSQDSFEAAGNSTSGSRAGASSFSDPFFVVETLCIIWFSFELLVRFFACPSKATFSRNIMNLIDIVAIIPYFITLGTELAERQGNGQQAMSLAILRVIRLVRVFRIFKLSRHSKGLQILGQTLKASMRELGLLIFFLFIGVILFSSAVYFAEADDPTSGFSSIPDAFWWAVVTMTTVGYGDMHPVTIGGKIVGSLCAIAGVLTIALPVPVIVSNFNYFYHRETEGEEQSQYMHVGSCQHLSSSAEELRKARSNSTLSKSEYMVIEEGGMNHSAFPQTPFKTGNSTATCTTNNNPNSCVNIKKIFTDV
Experiment: Kv1.3 potency evaluation, automated patch clamp electrophysiology (QPatch HT) in CHO-Kv1.3 cells
Conditions: whole-cell QPatch HT, % inhibition of charge, step to +30 mV, four concentrations, N≥3 cells, read-out: hKv1.3 IC50
propertyMeasured: IC50 (nM)

Example entries and their recorded answers appear below.
CN(CC1CC1(F)F)C(=O)[C@@H]1NC(C23CC(N(Cc4ccc(Cl)c(F)c4)S(=O)(=O)c4ccccc4)(C2)C3)=NC1(C)C (mixture of isomers); 55
CC1(C)N=C(C23CC(N(Cc4ccc(Cl)c(F)c4)S(=O)(=O)c4ccccc4)(C2)C3)N[C@H]1C(=O)N1CCC2(C1)CC2(F)F (mixture of isomers); 78
CC1(C)N=C(C23CC(N(Cc4ccc(C(F)(F)F)cc4)S(=O)(=O)c4ccc(F)cc4)(C2)C3)NC1C(=O)NCC1CCC1 (stereo not shown); 115
CC(F)(F)CCS(=O)(=O)N(Cc1ccc(Cl)c(Cl)c1)C12CC(C3=NC(C)(C)[C@H](C(=O)N4CCC(F)(F)CC4)N3)(C1)C2 (mixture of isomers); 104
CN(C[C@H]1CC1(F)F)C(=O)[C@@H]1NC(C23CC(N(Cc4ccc(Cl)c(F)c4)S(=O)(=O)c4ccccc4)(C2)C3)=NC1(C)C (mixture of isomers); 61
CC1(C)N=C(C23CC(N(Cc4ccc(Cl)c(F)c4)S(=O)(=O)c4ccccc4)(C2)C3)N[C@H]1C(=O)N(CCC(F)(F)F)C1CC1 (mixture of isomers); 74
CC1(C)N=C(C23CC(N(Cc4ccc(Cl)cc4)S(=O)(=O)C4CCCCC4)(C2)C3)N[C@H]1C(=O)NCCC(F)(F)F (mixture of isomers); 46

1. CC1(C)N=C(C23CC(N(Cc4ccc(Cl)c(Cl)c4)S(=O)(=O)c4ccccc4)(C2)C3)N[C@H]1C(=O)N1CC2(C1)CC(F)(F)C2 (mixture of isomers)
2. CC1(C)N=C(C23CC(N(Cc4ccc(Cl)c(F)c4)S(=O)(=O)c4ccccc4)(C2)C3)N[C@H]1C(=O)NC1CC1C(F)(F)F (mixture of isomers) [Example 75]
3. CC1(C)N=C(C23CC(N(Cc4ccc(Cl)c(Cl)c4)S(=O)(=O)c4ccccc4)(C2)C3)N[C@H]1C(=O)N1CCC2(COC2)C1 (mixture of isomers)
Qu. Arrange the 3 compounds from largest to smallest IC50. Output the labels ranked as instructed.
Ans. 3, 1, 2
